Taken from patent EP4578855A1.

tested on: human hepatocarcinoma cell line Hep3B; experiment: In-vitro erythropoietin (EPO)-inducing activity experiment (EPO ELISA, OD450); format: cell-based; conditions: Homo sapiens, Hep3B, 24 h, Hep3B cells, incubated 24 hours at 37°C
PARAMETER_MEASURED: EC50

COMPOUND	RESULT
O=C(O)CNC(=O)c1c(O)cc(C2CCc3ccccc3C2)n2ncnc12 (single isomer, unassigned) [Compound in Embodiment 13]	5.05 µM
Cc1nc(C(=O)NCC(=O)O)c(O)c2ccc(Oc3ccccc3)cc12 [FG-4592, Roxadustat, reference compound]	13.8 µM
O=C(O)CNC(=O)c1c(O)cc(C=Cc2ccccc2)n2ncnc12	1.79 µM
O=C(O)CNC(=O)c1c(O)cc(C#Cc2ccccc2)n2ncnc12	6.46 µM
O=C(O)CNC(=O)c1c(O)cc(C2CCc3ccccc3C2)n2ncnc12 (centres unmarked) [Compound in Embodiment 12]	6.79 µM
